The measured values listed here are drawn from patent US9598414B2.

target.of.assay: Muscarinic M5 (Homo sapiens)
Sequence (P08912 whole entry): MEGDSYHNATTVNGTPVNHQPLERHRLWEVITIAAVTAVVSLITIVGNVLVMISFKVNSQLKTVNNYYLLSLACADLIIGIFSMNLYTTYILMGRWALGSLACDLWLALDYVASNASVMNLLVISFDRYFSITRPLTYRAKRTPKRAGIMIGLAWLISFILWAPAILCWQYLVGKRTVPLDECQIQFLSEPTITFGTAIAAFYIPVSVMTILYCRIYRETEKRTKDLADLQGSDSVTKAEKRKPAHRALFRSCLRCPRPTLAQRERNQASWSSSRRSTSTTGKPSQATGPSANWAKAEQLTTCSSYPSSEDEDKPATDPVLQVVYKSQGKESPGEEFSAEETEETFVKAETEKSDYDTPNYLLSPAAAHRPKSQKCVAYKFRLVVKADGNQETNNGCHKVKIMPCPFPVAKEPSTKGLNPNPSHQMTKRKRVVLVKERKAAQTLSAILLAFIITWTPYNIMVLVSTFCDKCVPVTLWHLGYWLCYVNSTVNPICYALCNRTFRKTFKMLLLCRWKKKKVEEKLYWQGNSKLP
observable: Ki (µM)

1. CN1CCc2c(c3cccc4c3n2-c2ccccc2CC4)C1 [Compound 6a, reference compound]; 5.17

----------
Reported Ki, Serotonin 5-HT7 (Homo sapiens).
observable: Ki (nM)

1. CN1CCc2c(c3cccc4c3n2Cc2ccccc2O4)C1 [Compound 13b]; 258
2. CN1CCc2c(c3cccc4c3n2Cc2ccccc2C4)C1 [Compound 13a]; 212
3. CN1CCc2c(c3cccc4c3n2-c2ccccc2CC4)C1 [Compound 6a, reference compound]; 100

----------
target.of.assay: Opioid μ (Homo sapiens, UniProt P35372)
Sequence (P35372 whole entry): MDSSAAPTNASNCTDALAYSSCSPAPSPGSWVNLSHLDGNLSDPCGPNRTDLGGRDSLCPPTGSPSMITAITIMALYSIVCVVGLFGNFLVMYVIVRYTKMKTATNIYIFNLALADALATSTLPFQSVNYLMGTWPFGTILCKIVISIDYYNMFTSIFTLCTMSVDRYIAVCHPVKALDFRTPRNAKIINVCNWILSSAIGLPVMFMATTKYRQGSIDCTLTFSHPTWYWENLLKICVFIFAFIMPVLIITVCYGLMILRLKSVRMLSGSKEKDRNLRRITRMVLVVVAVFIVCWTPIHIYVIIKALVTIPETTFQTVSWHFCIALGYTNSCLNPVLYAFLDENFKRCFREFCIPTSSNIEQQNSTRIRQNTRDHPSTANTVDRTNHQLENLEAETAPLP
pKi: −log10 of the molar value.
observable: pKi

1. CN1CCc2c(c3cccc4c3n2Cc2ccccc2O4)C1 [Compound 13b]; < 5.00
